Measured Plant response rating, Oilseed Rape values are reported for all entries that follow.
System: oilseed rape (Brassica napus)
Experiment: Test D postemergence
Type: in vivo
Conditions: 125 g ai/ha, scale 0 to 100
ENDPOINT LABEL: Plant response rating, Oilseed Rape

> print(dat)
                    structure.smiles.string  test.result
1   N#Cc1cccc(Oc2ncc(Cl)cn2)c1Oc1ncc(Cl)cn1           90
2  Fc1cccc(Oc2ncc(C(F)(F)F)cn2)c1Oc1ncc(Cl)cn1           95
3     Fc1cnc(Oc2c(Br)cccc2Oc2ncc(Cl)cn2)nc1           80
4  FC(F)(F)c1cnc(Oc2c(Br)cccc2Oc2ncc(Cl)cn2)nc1           80

---

List of pest or weed control at 62 g/ha values.
Test system: Italian ryegrass (Lolium multiflorum)
Experiment: Test C postemergence
Format: in vivo
Conditions: Lolium multiflorum, post-emergence, 336 h; Postemergence, 62 g ai/ha, scale 0 to 100; read-out: Plant response rating, Ryegrass, Italian
ENDPOINT LABEL: pest or weed control at 62 g/ha (%)

> print(dat)
                                   compound  endpoint.unit  test.result
1  Fc1cccc(Oc2ncc(Cl)cn2)c1Oc1ncc(Cl)cn1 [Compound 21]              %            0
2  N#Cc1cccc(Oc2ncc(C(F)(F)F)cn2)c1Oc1ncc(Cl)cn1 [Compound 39]              %            5
3  Fc1cccc(Oc2ncc(C(F)(F)F)cn2)c1Oc1ncc(Cl)cn1 [Compound 42]              %           10
4  Fc1cnc(Oc2c(F)cccc2Oc2ncc(Cl)cn2)nc1 [Compound 23]              %            0

---

Reported plant injury at 31 g/ha values are given for each entry in this list.
Tested on: wheat (Triticum aestivum)
Assay: Test A postemergence
Type: in vivo
Conditions: Triticum aestivum, post-emergence, 240 h, 31 g ai/ha, 0 to 100 scale, read-out: Plant response rating, Wheat
ENDPOINT LABEL: plant injury at 31 g/ha (%)

> print(dat)
                    structure.smiles.string               study.target  endpoint.unit  test.result
1   N#Cc1cccc(Oc2ncc(Cl)cn2)c1Oc1cccc(Cl)c1  wheat (Triticum aestivum)              %            0
2    Fc1cnc(Oc2c(F)ccc(F)c2Oc2ncc(F)cn2)nc1  wheat (Triticum aestivum)              %           30
3   N#Cc1cccc(Oc2ncc(Cl)cn2)c1Oc1ccc(Br)cn1  wheat (Triticum aestivum)              %            0
4  Fc1ccc(F)c(Oc2ncc(Br)cn2)c1Oc1ncc(Br)cn1  wheat (Triticum aestivum)              %           20
5   N#Cc1cccc(Oc2ncc(Cl)cn2)c1Oc1ccc(Cl)cc1  wheat (Triticum aestivum)              %            0
6   N#Cc1cccc(Oc2ncc(Br)cn2)c1Oc1ccc(Br)cn1  wheat (Triticum aestivum)              %            0
7  Fc1ccc(F)c(Oc2ncc(Cl)cn2)c1Oc1ncc(Cl)cn1  wheat (Triticum aestivum)              %            0
